Biological target: T1, hSTEAP3 fused to GFP (Homo sapiens, UniProt Q658P3)
T1 construct: expressed in transfected cells; host or cells: HEK293
T1 sequence (Q658P3 1-488): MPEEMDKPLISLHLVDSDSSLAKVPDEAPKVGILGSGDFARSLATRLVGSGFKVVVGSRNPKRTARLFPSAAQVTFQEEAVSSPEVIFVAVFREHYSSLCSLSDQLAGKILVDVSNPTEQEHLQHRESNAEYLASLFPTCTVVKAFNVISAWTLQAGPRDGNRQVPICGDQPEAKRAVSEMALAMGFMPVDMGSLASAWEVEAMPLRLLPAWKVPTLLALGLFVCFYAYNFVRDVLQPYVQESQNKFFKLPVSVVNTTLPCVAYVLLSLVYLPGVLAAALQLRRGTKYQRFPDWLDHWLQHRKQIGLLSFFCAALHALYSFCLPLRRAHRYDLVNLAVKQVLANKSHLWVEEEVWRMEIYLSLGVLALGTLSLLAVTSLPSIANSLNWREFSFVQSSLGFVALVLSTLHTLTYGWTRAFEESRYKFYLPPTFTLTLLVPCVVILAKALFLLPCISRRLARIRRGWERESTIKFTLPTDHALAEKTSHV
Assay: Specificity: binding to HEK293 cells transfected with hSTEAP3-GFP
Set-up: key: Wells with GFP positive cells that bound anti STEAP2 antibodies were scored as positive (+); those that did not bind anti STEAP2 antibodies were scored as negative (−)
Conditions: transient transfection, 48 h
reported endpoint: Binding to hSTEAP3-GFP transfected HEK293 cells

{"molecule": "H1H7972P: anti-STEAP2 antibody, HCVR/LCVR SEQ ID NOs 186/194 (antibody, V domains shown) VH: QVQLQQSGPGLVKPSQTLSLTCAISGDSVSSNSAAWNWIRQSPSRGLEWLGRTYYRSKWYNDYVVSVKSRIIFNPDTSKNQFSLQLNSVTPEDTAVYYCARVRQDYRSGPFDYWGQGTLVTVSS VL: EIVMTQSPVTLSVSPGERATLSCWASQSVSSSLAWYQQKPGQAPRLLIYGASTRATGIPARFSGSGSGTGFTLTISSLQSEDFAVYYCQQYNNWPFTFGPGTKVDIK", "value": "−"}
